I'd be grateful if you could share measured calcium oscillation score for these entries.
TARGET_OR_TEST_SYSTEM: Tau
ASSAY_METHOD_TEXT: rat primary cortical neurons, FLIPR, 25 uM ASO
Bases are written 5' to 3'; sugars and linkages follow in the same order, as letters with counts (s phosphorothioate, o phosphodiester; PS: all linkages phosphorothioate). The collection does not say whether C is 5-methylated. l = locked nucleic acid (LNA); d = 2'-deoxy (DNA)

Tested on Tau, the item TCCTAATCCTGTGCT (sugars l3 d9 l3, PS) showed calcium oscillation score equal to 140 % of control

Tested on Tau, the item GCATGATTGTGGGC (sugars l3 d8 l3, PS) showed calcium oscillation score equal to 85.7 % of control

Tested on Tau, the item ACAAACCAGTTACCATC (sugars l3 d10 l4, PS) showed calcium oscillation score equal to 87.7 % of control

Tested on Tau, the item TCTTCACATCCCAACTA (sugars l2 d12 l3, PS) showed calcium oscillation score equal to 126 % of control

Tested on Tau, the item TATTGAACTCACCCACT (sugars l2 d11 l4, PS) showed calcium oscillation score equal to 65.7 % of control

Tested on Tau, the item ACTGGTTTGTAGACTATTTG (sugars l3 d14 l3, PS) showed calcium oscillation score equal to 0 % of control

Tested on Tau, the item CGGAAGGTCAGCTTGT (sugars l3 d10 l3, PS) showed calcium oscillation score equal to 32.5 % of control

Tested on Tau, the item CCCAGCGTGATCTTCCATCA (sugars ldlllddddddddddlldll, PS) showed calcium oscillation score equal to 124 % of control

Tested on Tau, the item CGGAAGGTCAGCTTGTGGGT (sugars l3 d14 l3, PS) showed calcium oscillation score equal to 14.5 % of control

Tested on Tau, the item TATTTCCAAATTCACTTTTA (sugars l2 d16 l2, PS) showed calcium oscillation score equal to ≥ 200 % of control

Tested on Tau, the item ATGCAGGAGTTGTAAG (sugars l3 d10 l3, PS) showed calcium oscillation score equal to 40.8 % of control
